Experiment: Cytotoxicity in HeLa cells, observed microscopically in the antiviral test
Assay type: cell-based
Conditions: human, hela cells
MEASURED_METRIC: MCC at 48 h (µg/mL)
Answer format: numeric, µg/mL implied, no suffix.

Respond only with MCC at 48 h recorded for CCOc1cc(O)c(C(=S)CCc2ccc(OC)cc2)c(OC)c1
2.7

====

Test system: Rhinovirus HGP
Test: Antiviral activity: inhibition of viral cytopathogenic effect (C.P.E.) in HeLa cell culture
Type: cell-based
Conditions: Enterovirus, HeLa, 48 h, concentration inhibiting C.P.E. by 50% versus control culture; HeLa cells, 2 days at 33°C; read-out: IC50
Would you mind telling me the reported IC50 of each entry?

Respond only with IC50 recorded for COc1ccc(NC(=O)c2c(O)cc(OC)cc2OC)cc1
0.03 to 0.1 µg/mL

Respond only with IC50 recorded for COc1cc(O)c(C(=O)NCc2ccccc2)c(OC)c1
0.03 to 0.1 µg/mL

Respond only with IC50 recorded for COc1cc(O)c(C(=O)NCC2CCCS2)c(OC)c1 (centres unmarked)
0.004 to 0.01 µg/mL

Respond only with IC50 recorded for COc1cc(O)c(C(=O)CCc2ccc(C)cc2)c(OC)c1
0.01 to 0.03 µg/mL

Respond only with IC50 recorded for CCCOc1cc(O)c(C(=O)CCc2ccc(OC)cc2)c(OC)c1
0.004 to 0.01 µg/mL

====

Tested on: Rhinovirus HGP
Test: Antiviral activity: inhibition of viral cytopathogenic effect (C.P.E.) in HeLa cell culture
Type: cell-based
Settings: Enterovirus, HeLa, 48 h, concentration inhibiting C.P.E. by 50% versus control culture; HeLa cells, 2 days at 33°C; read-out: IC50
MEASURED_METRIC: IC50

Respond only with IC50 recorded for COc1cc(O)c(C(=O)CCc2ccc(SC)cc2)c(OC)c1
0.01 to 0.03 µg/mL

Respond only with IC50 recorded for CCOc1cc(OC)cc(O)c1C(=O)CCc1ccc(OC)cc1
0.01 to 0.03 µg/mL

Respond only with IC50 recorded for COc1ccc(C(=O)CC(=O)c2c(O)cc(OC)cc2OC)cc1
0.01 to 0.03 µg/mL

====

Tested on: Rhinovirus HGP
Assay: Antiviral activity: inhibition of viral cytopathogenic effect (C.P.E.) in HeLa cell culture
Format: cell-based
Details: Enterovirus, HeLa, 48 h, concentration inhibiting C.P.E. by 50% versus control culture; HeLa cells, 2 days at 33°C; read-out: IC50
Would you mind telling me the reported IC50 of each entry?

Respond only with IC50 recorded for CCCOc1cc(O)c(C(=O)NCc2ccc(OC)cc2)c(OC)c1
0.001 to 0.003 µg/mL

Respond only with IC50 recorded for COc1cc(O)c(C(=O)NCc2ccc(OCc3ccccc3)cc2)c(OC)c1
0.3 to 0.9 µg/mL

Respond only with IC50 recorded for COc1cc(O)c(C(=O)CCc2ccc3c(c2)OCO3)c(OC)c1
0.03 to 0.1 µg/mL

Respond only with IC50 recorded for COc1cc(O)c(C(=O)NCc2ccco2)c(OC)c1
0.03 to 0.1 µg/mL

Respond only with IC50 recorded for CCCCCCCCCCCCCCCCCC(=O)Oc1cc(OC)cc(OC)c1C(=O)NCc1ccc(OC)cc1
0.3 to 0.9 µg/mL

====

Test system: Rhinovirus HGP
Assay: Antiviral activity: inhibition of viral cytopathogenic effect (C.P.E.) in HeLa cell culture
Type: cell-based
Conditions: Enterovirus, HeLa, 48 h, concentration inhibiting C.P.E. by 50% versus control culture; HeLa cells, 2 days at 33°C; read-out: IC50
Would you mind telling me the reported IC50 of each entry?

Respond only with IC50 recorded for COc1cc(O)c(C(=O)NCc2ccc(OC)c(O)c2)c(OC)c1
0.1 to 0.3 µg/mL

Respond only with IC50 recorded for COc1cc(O)c(C(=O)NCc2ccc3c(c2)OCO3)c(OC)c1
0.003 to 0.01 µg/mL

Respond only with IC50 recorded for COc1cc(O)c(C(=O)NCc2ccc(Cl)cc2)c(OC)c1
0.01 to 0.03 µg/mL

Respond only with IC50 recorded for COc1cc(O)c(C(=O)NCc2ccc(C)cc2)c(OC)c1
0.01 to 0.03 µg/mL

Respond only with IC50 recorded for COc1ccc(CNC(=O)c2c(O)cc(OCC=C(C)C)cc2OC)cc1
0.001 to 0.002 µg/mL

Respond only with IC50 recorded for COc1ccc(CCC(=O)c2c(O)cc(OC(C)C)cc2OC)cc1
0.03 to 0.1 µg/mL
